Ref: the supplement of paper PMC13380429

- Test system: A549-ACE2 infected with SARS-CoV-2
- protocol-description: SARS-CoV-2 infection rate relative to DMSO; higher = more infection
- details: 0.3 µM; 24 h
measured-attribute: SARS-CoV-2 infection rate (%)
Reply with just the number (in %).

What does the data say about its SARS-CoV-2 infection rate? Entry: O=[N+]([O-])c1ccccc1S(=O)(=O)NCC1CCC(CNC[C@H]2CCc3ccccc3C2)CC1 (stereo not given in full) [NTNCB] 102

Look at this compound and give its reported SARS-CoV-2 infection rate. O=C(OCC(O)CO)c1ccccc1Nc1ccnc2cc(Cl)ccc12 (stereo not given) [glafenine] 94

Give its SARS-CoV-2 infection rate value. Item: CN1CCC[C@@H](CC2c3ccccc3Sc3ccccc32)C1 (racemic) [metixene] 103

For the compound NCCc1c[nH]c2ccc(C(N)=O)cc12 [5-carboxamidotryptamine] , what SARS-CoV-2 infection rate is on record? 100

For the compound "Cn1cc(-c2ccc3c(c2)CCN3C(=O)Cc2cccc(C(F)(F)F)c2)c2c(N)ncnc21" , what SARS-CoV-2 infection rate is on record? 96
